The reported numbers originate from patent US20240317871A1.

Quick reference for ELISA signal among some binders
Target: T1, cynomolgus monkey HVEM (cynomolgus monkey, UniProt A0A2K5W0R1 39-203); further: test concentration or dose not given here
T1 sequence: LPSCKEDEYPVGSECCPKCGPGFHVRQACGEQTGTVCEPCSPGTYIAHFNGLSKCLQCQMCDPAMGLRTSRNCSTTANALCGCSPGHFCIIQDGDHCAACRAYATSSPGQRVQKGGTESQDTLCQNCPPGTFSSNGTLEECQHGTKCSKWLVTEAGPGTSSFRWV
Test: ELISA

binder: Ab_047 (H5S15-36A32A) (antibody, V domains shown, also called Ab_47) VH: EVQLQQSGAELVKPGASVKLSCTASGFNIKDTYMHWVKQRPEQGLEWIGRIDPANGNTKYDPKFQGKATITADTSSNTAYLQLSSLTSEDTAVYYCARPYGNYGFAYWGQGTLVTVSA VL: DIQMTQSPASLSASVGETVTITCRASGNIHNYLAWYQQKQGKSPQLLVYNAKTLADGVPSRFSGSGSGTQYSLKINSLQPEDFGSYYCQHFWSTFTFGSGTKLEIK
ELISA signal: 0.743

binder: Ab_082 (H5S20-55A36A) (antibody, V domains shown, also called Ab_82) VH: EVKLVESGGGLVQPGGSLKLSCAASGFTFSSYTMSWVRQTPEKRLEWVADISNGGGSTYYPDTVKGRFTISRDNAKNTLYLQMSSLKSEDTAMYYCARHRGYGNYVYAMDYWGQGTSVTVSS VL: DIVMTQSQKFMSTSVGDRVSVTCKASQNVGTNVAWYQQKPGQSPKALIYSASYRYSGVPDRFTGSGSGTDFTLTISNVQSEDLAEYFCQQYNSYPLTFGGGTKLEIK
ELISA signal: 0.06

binder: Ab_020 (H5S14-22A20A) (antibody, V domains shown, also called Ab_20) VH: EVQLQQSGPELVKPGASVKMSCKASGYTFTSYVMHWVKQKPGQGLEWIGYINPYNDGTKYNEKFKGKATLTSDKSSSTAYMELSSLTSEDSAVYYCARGIITTVIEPILYAMDYWGQGTSVTVSS VL: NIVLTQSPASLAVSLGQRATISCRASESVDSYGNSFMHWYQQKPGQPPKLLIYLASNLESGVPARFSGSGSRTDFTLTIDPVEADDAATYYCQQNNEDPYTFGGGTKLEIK
ELISA signal: 0.064
